Could you please report measured z-score for the items listed next?
- test: P. aeruginosa biofilm formation inhibitors, primary screen, PAO1 strain, BacTiter-Glo luminescence, LB-PBS (AID 1144)
- details: 12 h, higher = more signal
Activity calls are given as the source filed them. No rule for the calls is given here.

{"columns": ["structure-smiles", "quantity-measured", "result"],
 "data": [
  ["COC(=O)C(CC#Cc1ccc2c(c1)[C@]1(C(=O)N2)[C@H](C(=O)Nc2nc3ccccc3s2)[C@H]2C(=O)O[C@H](c3ccccc3)[C@H](c3ccccc3)N2[C@@H]1c1ccc(O)cc1)C(=O)OC", "z-score", "-0.672 (inactive)"],
  ["O=C(CS)NCCCCCCNC(=O)[C@@H]1C[C@@H]2C(=O)N[C@@H](Cc3ccccc3)C(=O)N2[C@@H]1c1cccc(OCCO)c1", "z-score", "-0.614 (inactive)"],
  ["O=C1O[C@H](c2ccccc2)[C@H](c2ccccc2)N2[C@H]1[C@@H](C(=O)N1CCCCCCC1)[C@]1(C(=O)Nc3ccc(C#CC4=CCCCC4)cc31)[C@H]2c1ccc(OCCO)cc1", "z-score", "-0.761 (inactive)"],
  ["O=C1O[C@@H](c2ccccc2)[C@@H](c2ccccc2)N2[C@@H](c3ccccc3OCCO)[C@]3(C(=O)Nc4ccccc43)[C@@H](C(=O)Nc3nc4ccccc4s3)[C@H]12", "z-score", "-0.311 (inactive)"],
  ["O=C1C[C@@](C(=O)NCCN2CCOCC2)(c2ccc([N+](=O)[O-])cc2)[C@@H](c2ccc(CO)cc2I)N1CC12CC3CC(CC(C3)C1)C2", "z-score", "1.22 (inactive)"],
  ["CCOC(=O)C[C@H]1[C@H](OC(=O)c2cc3ccccc3oc2=O)[C@@H](NC(=O)c2ccccc2)c2cc(OCCCO)ccc2N1C(=O)c1ccc2ccccc2n1", "z-score", "0.594 (inactive)"]
]}

Would you mind giving z-score for every compound in the list below?
1. CC(C)N1C(=O)[C@@]2(Cc3ccccc31)c1ccccc1C(=O)N(Cc1ccccc1Cl)[C@H]2c1ccc(CO)cc1
2. COc1ccc(C#Cc2ccc3c(c2)[C@]2(C(=O)N3)[C@H](C(=O)NC[C@H](O)c3ccccc3)[C@H]3C(=O)O[C@H](c4ccccc4)[C@H](c4ccccc4)N3[C@@H]2c2ccc(O)cc2)cc1
3. CCCCCCc1nc(-c2cc(C)c(OC)c(C)c2)cc2c1[Si](C(C)C)(C(C)C)OC2

["-1.68 (inactive)", "-1.1 (inactive)", "-0.661 (inactive)"]

---

- measurement-target: Torsin-1A (Homo sapiens)
- test: small-molecule binders of mutant TOR1A in lysate, primary screen, cell lysate, small-molecule microarray, COS7 lysate, 635/667 nm fluorescence (AID 1150);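 also: score pools 667 nm emission and signal to noise measuring lysate protein binding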
- details: COS7 hTOR1A mutant lysate, 635 nm fluorescence, higher = more signal
Label True for high-side composite z-score (at or above 0.6) and False for low-side composite z-score (below it).

{"columns": ["compound", "measurement-target", "assigned-class"],
 "data": [
  ["O=C1NC(=O)C2C1C=CC(C(O)c1cc(C(F)(F)F)cc(C(F)(F)F)c1)N2Nc1ccccn1 (stereo not given)", "Torsin-1A (Homo sapiens)", "False"],
  ["[N-]=[N+]=Nc1ccccc1[C@H]1OC(c2ccc(OCCCO)cc2)=N[C@@]1(CCS(=O)(=O)c1ccccc1)C(=O)NCC(O)CO (stereo not given in full)", "Torsin-1A (Homo sapiens)", "True"],
  ["COc1cc2c(cc1OC)CN(C(=O)[C@H]1[C@@H]3C(=O)O[C@@H](c4ccccc4)[C@@H](c4ccccc4)N3[C@@H](c3ccc(O)cc3)[C@]13C(=O)Nc1ccc(C#CCCO)cc13)CC2", "Torsin-1A (Homo sapiens)", "True"]
]}

Decide: composite z-score of "CCCC[C@H]1OB(O)C[C@H]2C1=C(COC)Cn1c(=O)n(-c3ccccc3)c(=O)n12" >= 0.6?
False

---

- test: CREB reporter modulators without forskolin, primary screen, cell-based, PC12, CRE-LacZ reporter, unstimulated (AID 1145)
- details: no forskolin, luminescence, 4.5 h, called active from +8 up or from −8 down
Active and inactive are the calls of the source.
Output constraint: value belongs to Y (active), N (inactive)

Some solved entries appear below for comparison.
{"columns": ["compound", "assigned-class"],
 "data": [
  ["CN(C)CCCCCCNC(=O)[C@H]1C[C@H]2C(=O)N[C@@H](CCCCN)C(=O)N2[C@H]1c1cccc(OCCO)c1", "N"],
  ["COc1ccc([Si](C)(C)[C@@H]2[C@@H](CC(=O)N3CCC[C@H]3CO)O[C@]3(C(=O)N(c4ccccc4)c4ccccc43)[C@H]2C)cc1", "N"],
  ["CC1CC/C=C\\[C@H]2OC34C=CCN(Cc5ccccc5)C(=O)[C@H]3N(CCCO)C(=O)[C@@H]4C2C(=O)O1 (stereo partly drawn)", "N"],
  ["O=C1OCCC/C=C\\[C@H]2OC34C=CCN(Cc5ccccc5)C(=O)[C@H]3N(CCCO)C(=O)[C@@H]4C12 (stereo partly drawn)", "N"],
  ["C[N+](C)(C)CCCCNC(=O)[C@H]1C[C@H]2C(=O)N3CCC[C@H]3C(=O)N2[C@H]1c1cccc(OCCO)c1", "N"]
]}

# ---- query compound ----
Assay result, entry "C=CCN1C(=O)[C@@]2(Cc3ccccc31)N=C(c1ccc(OCCCO)cc1)O[C@H]2c1ccccc1" — outcome?
N

---

- test: basal HepG2 mitochondrial membrane potential changes, profiling panel, cell-based, JC-1 fluorescence, 24 h, 100 nL compound (AID 1167); also: test concentration not given here
- details: higher = more signal
Consider the following molecules; for each one, report its z-score.

{"columns": ["molecule", "z-score"],
 "data": [
  ["COC(=O)[C@@]1(Cc2ccc(OC)cc2)[C@H]2c3cc(C(=O)N4CCCC4)n(Cc4ccc(C)c(F)c4F)c3C[C@H]2CN1C(=O)c1ccccc1", 3.41],
  ["O=C1c2ccccc2[C@](Cc2ccccc2I)(C(=O)NCCN2CCOCC2)[C@H](c2ccc(CO)cc2)N1C1CCCCC1", 1.36],
  ["Cc1ccc(S[C@]2(C(=O)NCCCN(C)C)CC(=O)N(Cc3cc(C(F)(F)F)cc(C(F)(F)F)c3)[C@@H]2c2ccc(CO)cc2)cc1", 0.263]
]}

Parameter requested: z-score. Apply to each item below.
1. C=C(COC)/C(=C/C[C@@H](OC(=O)c1ccncc1)c1ccc(CO)o1)c1cc(C(=O)OC)ccc1OC
2. O=C(c1ccccc1)N1C(=O)[C@@]2(Cc3ccccc31)N=C(c1ccc(OCCCO)cc1)O[C@H]2c1ccccc1
3. COC(=O)[C@]1(CCC(=O)OC(C)(C)C)N=C(c2ccc(OCCCO)cc2)O[C@@H]1c1ccccc1CN=[N+]=[N-]
4. CCOC(=O)C[C@H]1[C@H](OC(=O)c2ccc(C(=O)c3ccccc3)cc2)[C@@H](NC(=O)c2ccccc2)c2cc(OCCCO)ccc2N1C(=O)c1ccc2ccccc2n1
5. CC(C)(C)OC(=O)CC[C@]1(C(=O)N2CCOCC2)N=C(c2ccc(OCCCO)cc2)O[C@H]1c1ccccc1N=[N+]=[N-]
6. CCOC(=O)C[C@H]1[C@H](OC(=O)c2ccc(-c3ccccc3)cc2)[C@@H](NC(=O)Cc2ccc(OC)cc2)c2cc(OCCCO)ccc2N1C(=O)c1ccccc1
7. COc1ccc(C(O)C2C=CC3C(=O)N(Cc4ccccc4)C(=O)C3N2n2cnnc2)cc1OCc1ccccc1 (centres undefined)
8. C=C[C@H](CO)NS(=O)(=O)c1ccc(Br)cc1

1. 0.232
2. 0.157
3. -1.93
4. 1
5. 1.27
6. 1.37
7. -0.323
8. 0.63

Hey, can you go through the list below and give me z-score for every item?
1. CO[C@H]1O[C@H](CO)[C@@H](OC(=O)Nc2ccc(C(F)(F)F)cc2)[C@H](OC(=O)Nc2ccc3c(c2)OCO3)[C@@H]1OC(=O)Nc1ccc2c(c1)OCO2
2. O=C1C2C=CC(C(O)Cc3ccccc3)N(n3cnnc3)C2C(=O)N1Cc1ccccc1 (centres undefined)
3. COC(=O)[C@@]1(Cc2ccc(F)cc2)[C@H]2c3cc(C(=O)N4CCCC4)n(Cc4ccc(S(C)(=O)=O)cc4)c3C[C@H]2CN1C(=O)c1ccccc1
4. [N-]=[N+]=NCc1ccccc1[C@@H]1OC(c2ccc(OCCCO)cc2)=N[C@]1(Cc1ccccc1)C(=O)NCC(O)CO (some centres undefined)
5. COC(=O)[C@@]1(CCS(=O)(=O)c2ccccc2)N=C(c2ccc(OCCCO)cc2)O[C@H]1c1ccccc1CN=[N+]=[N-]

1. -1.62
2. -0.532
3. 2.11
4. -0.474
5. -1.13

Each molecule below has a reported value. Please supply its z-score.
1. Cc1ccc(S[C@]2(C(=O)NC3CC3)CC(=O)N(Cc3ccccc3)[C@@H]2c2ccc(CO)cc2I)cc1
2. COc1ccc([Si](C)(C)[C@H]2[C@H](CC(=O)N3Cc4ccccc4C[C@H]3CO)O[C@@]3(C(=O)N(Cc4cccc(N5CCC5=O)c4)c4ccccc43)[C@@H]2C)cc1

[1.55, 0.419]

"O=C1C[C@@](C(=O)NC2CC2)(c2ccc([N+](=O)[O-])cc2)[C@@H](c2ccc(CO)cc2I)N1C1CCCCC1" yielded z-score of 0.575
